Source listed as ChEMBL document CHEMBL3774369.

assay: Intrinsic clearance in Han Wistar rat hepatocytes assessed per 10^6 cells; type: ADME, cell-based, Hepatocyte; settings: read-out: CLH
Value Kind: hepatocyte CLint (µL/min/1e6 cells)
Provide only the numeric value, understood in µL/min/1e6 cells.

// known answers, use as guide
Molecule | Unit Of Measure | hepatocyte CLint
CC(C)CN1[C@H](c2ccc(/C=C/C(=O)O)cc2)c2ccccc2C[C@H]1C | µL/min/1e6 cells | 24
C[C@@H]1Cc2cc(O)ccc2[C@@H](c2c(F)cc(/C=C/C(=O)O)cc2F)N1CC(C)(C)F | µL/min/1e6 cells | 74
O=C(O)/C=C/c1ccc(C2c3ccc(O)cc3CCN2c2ccc(OC(F)(F)F)cc2)cc1 (centres undefined) | µL/min/1e6 cells | 20
C[C@H](CF)CN1[C@H](c2ccc(/C=C/C(=O)O)cc2)c2ccc(O)cc2C[C@H]1C | µL/min/1e6 cells | 47
C[C@@H]1Cc2cc(O)ccc2[C@@H](c2ccc(/C=C/C(=O)O)cc2)N1c1ccc(OC(F)(F)F)cc1 | µL/min/1e6 cells | 9

Look up hepatocyte CLint for this molecule: CC(C)CN1[C@H](C)Cc2cc(O)ccc2[C@@]1(C)c1ccc(/C=C/C(=O)O)cc1 15

# hepatocyte CLint lookup, item COC[C@H](C)CN1[C@H](c2ccc(/C=C/C(=O)O)cc2)c2ccc(O)cc2C[C@H]1C 27

Item under review: C[C@H](CF)CN1[C@H](c2ccc(/C=C/C(=O)O)cc2)c2ccc(O)cc2CC1(C)C . Reported hepatocyte CLint? 24

# lookup: hepatocyte CLint of CC(C)CN1[C@H](c2c(F)cc(/C=C/C(=O)O)cc2F)c2ccc(O)cc2CC1(C)C 34

Reported hepatocyte CLint for CC(C)CN1CCc2cc(O)ccc2[C@H]1c1ccc(/C=C/C(=O)O)cc1 : what is it? 38

Recorded hepatocyte CLint of CC(C)CN1[C@H](c2ccc(/C=C/C(=O)O)cc2)c2ccc(O)cc2CC1(C)C , please. 7

Which hepatocyte CLint is listed for CC(C)(F)CN1[C@H](c2ccc(/C=C/C(=O)O)cc2)c2ccc(O)cc2CC1(C)C ? 59

Requested read-out: hepatocyte CLint. Entry: O=C(O)/C=C/c1ccc(C2c3ccc(O)cc3CCN2Cc2ccccc2)cc1 (centres undefined) 40

# query: hepatocyte CLint of entry Cc1cc2c(cc1O)CCN(CC(C)C)[C@@H]2c1ccc(/C=C/C(=O)O)cc1 17
